Reference source for all entries: the supplement of paper PMC7695840

# Tested on: Staphylococcus aureus MW2 (mecA+)
# EXPERIMENTAL_DETAILS: IC50 (growth, competition assay)
# EXPERIMENTAL_PARAMETERS: fluorescent label: DsRed; cefoxitin: subinhibitory
pIC50: −log10 of the molar value. Structures can show the parent of a compound that is named as a salt.

# COMPOUND, EXPERIMENTAL_SYSTEM, BOUND_OPERATOR, pIC50
measured = [
    ("CC1(C)S[C@@H]2[C@H](NC(=O)C(C(=O)O)c3ccccc3)C(=O)N2[C@H]1C(=O)O (stereo partly drawn) [CARBECIN]", "Staphylococcus aureus MW2 (mecA+)", "=", 4.62),
    ("CCCCCCCCCCCCCCC[C@H](O)[C@H](N)CO (racemic) [DL-erythro-Dihydrosphingosine]", "Staphylococcus aureus MW2 (mecA+)", "=", 4.82),
    ("CCN(CC)CCN(Cc1ccc(-c2ccc(C(F)(F)F)cc2)cc1)C(=O)Cn1c(SCc2ccc(F)cc2)nc(=O)c2c1CCC2", "Staphylococcus aureus MW2 (mecA+)", ">", 5.01),
    ("C=C1c2cccc(O)c2C(=O)C2=C(O)[C@]3(O)C(=O)C(C(N)=O)=C(O)[C@@H](N(C)C)[C@@H]3[C@@H](O)[C@H]12 [Methacycline hydrochloride (Physiomycine)]", "Staphylococcus aureus MW2 (mecA+)", "=", 6.15),
    ("COC(=O)c1c(OC)cc2c(c1C)Oc1c(Cl)c(O)c(Cl)c(C)c1C(=O)O2 [GANGALEOIDIN]", "Staphylococcus aureus MW2 (mecA+)", ">", 5.01),
    ("CN1CCN(CCCN2c3ccccc3Sc3ccc(C(F)(F)F)cc32)CC1 [Trifluoperazine 2HCl]", "Staphylococcus aureus MW2 (mecA+)", "=", 4.25),
    ("CC[C@H]1OC(=O)C[C@@H](O)[C@H](C)[C@@H](O[C@@H]2O[C@H](C)[C@@H](O)[C@H](N(C)C)[C@H]2O)[C@@H](CCN2C[C@H](C)C[C@H](C)C2)C[C@@H](C)C(=O)/C=C/C(C)=C/[C@@H]1CO[C@@H]1O[C@H](C)[C@@H](O)[C@@H](OC)[C@H]1OC [Tilmicosin]", "Staphylococcus aureus MW2 (mecA+)", ">", 5.01),
    ("COc1cc(-c2ccc(/N=N/c3ccc4c(S(=O)(=O)O)cc(S(=O)(=O)O)c(N)c4c3O)c(OC)c2)ccc1/N=N/c1ccc2c(S(=O)(=O)O)cc(S(=O)(=O)O)c(N)c2c1O [CHICAGO SKY BLUE]", "Staphylococcus aureus MW2 (mecA+)", "=", 4.60),
    ("O=C(O)CCCCC(CCSCc1ccccc1)SCc1ccccc1 (stereo not drawn) [CPI-613]", "Staphylococcus aureus MW2 (mecA+)", "=", 4.81),
    ("CCCCCCNC(=O)n1cc(F)c(=O)[nH]c1=O [Carmofur]", "Staphylococcus aureus MW2 (mecA+)", ">", 5.01),
    ("N[C@@H](C(=O)N[C@@H]1C(=O)N2C(C(=O)O)=C(Cl)CS[C@H]12)c1ccccc1 [Cefaclor]", "Staphylococcus aureus MW2 (mecA+)", ">", 5.01),
    ("O=C(Nc1cc(C(F)(F)F)cc(C(F)(F)F)c1)c1cc(Cl)ccc1O [IMD0354]", "Staphylococcus aureus MW2 (mecA+)", ">", 5.01),
    ("CC(=O)O[C@H]1C[C@@]2(C)[C@@H](C[C@@H](O)[C@H]3[C@@]4(C)CC[C@@H](O)[C@@H](C)[C@@H]4CC[C@@]32C)/C1=C(\\CCC=C(C)C)C(=O)O [FUCIDINE]", "Staphylococcus aureus MW2 (mecA+)", ">", 5.01),
    ("C[C@@H]1CCO[C@H]2Cn3cc(C(=O)NCc4ccc(F)cc4F)c(=O)c(O)c3C(=O)N12", "Staphylococcus aureus MW2 (mecA+)", "<", 3.82),
    ("CCn1cc(C(=O)O)c(=O)c2ccc(C)nc21 [Nalidixic acid sodium]", "Staphylococcus aureus MW2 (mecA+)", "=", 4.47),
    ("COc1ccc(Cc2cnc(N)nc2N)cc1OC [DIAVERIDINE]", "Staphylococcus aureus MW2 (mecA+)", "=", 4.24),
    ("C[C@@H](O)[C@H]1C(=O)N2C(C(=O)O)=C(S[C@@H]3CN[C@H](C(=O)N(C)C)C3)[C@H](C)[C@H]12 [MERREM]", "Staphylococcus aureus MW2 (mecA+)", "=", 4.05),
    ("Cc1cc2nc3c(=O)[nH]c(=O)nc-3n(C[C@H](O)[C@H](O)[C@H](O)CO)c2cc1C [FLAVAXIN]", "Staphylococcus aureus MW2 (mecA+)", "<", 3.82),
    ("CC(C)(C)c1nc(-c2cccc(NS(=O)(=O)c3c(F)cccc3F)c2F)c(-c2ccnc(N)n2)s1", "Staphylococcus aureus MW2 (mecA+)", "=", 4.46),
    ("CN(C(=O)CN(CCO)CC(=O)N(C)C(C)(C)Cc1ccccc1)C(C)(C)Cc1ccccc1 [OXETHAZAINE]", "Staphylococcus aureus MW2 (mecA+)", "=", 3.99),
    ("COc1cc2c(Oc3ccc(NC(=O)C4(C(=O)Nc5ccc(F)cc5)CC4)cc3F)ccnc2cc1OCCCN1CCOCC1", "Staphylococcus aureus MW2 (mecA+)", "=", 4.38),
    ("c1ccc2c(CCNc3ccc(Nc4ccncc4)cc3)c[nH]c2c1", "Staphylococcus aureus MW2 (mecA+)", "=", 3.98),
    ("CC[C@H](C)C[C@H](C)CCCCCCCCC(=O)N[C@H]1C[C@@H](O)[C@@H](NCCN)NC(=O)[C@@H]2[C@@H](O)CCN2C(=O)[C@H]([C@H](O)CCN)NC(=O)[C@H]([C@H](O)[C@@H](O)c2ccc(O)cc2)NC(=O)[C@@H]2C[C@@H](O)CN2C(=O)[C@H]([C@@H](C)O)NC1=O [Caspofungin acetate]", "Staphylococcus aureus MW2 (mecA+)", "=", 4.44),
    ("CCn1cc(C(=O)O)c(=O)c2cc(F)c(N3CCNC(C)C3)c(F)c21 (stereo not drawn) [Lomefloxacin hydrochloride (Maxaquin)]", "Staphylococcus aureus MW2 (mecA+)", "=", 5.75),
    ("Cc1ccc(S(=O)(=O)C=CC#N)cc1 [BAY 11-7082 (BAY 11-7821)]", "Staphylococcus aureus MW2 (mecA+)", ">", 5.01),
    ("CCC(Cc1c(I)cc(I)c(N)c1I)C(=O)O (stereo not drawn) [TELEPAQUE]", "Staphylococcus aureus MW2 (mecA+)", "=", 4.98),
    ("Cc1nc2sccn2c(=O)c1CCN1CCC(=C(c2ccc(F)cc2)c2ccc(F)cc2)CC1 [Ritanserin]", "Staphylococcus aureus MW2 (mecA+)", "=", 4.24),
    ("CNc1ccc2oc(C[C@H]3O[C@@]4(CC[C@H]3C)O[C@H]([C@H](C)C(=O)c3ccc[nH]3)[C@H](C)C[C@H]4C)nc2c1C(=O)O [Calcimycin]", "Staphylococcus aureus MW2 (mecA+)", ">", 5.01),
]
